Taken from patent US20120172293A1.

Recorded GBA EC50 Ratio ([35S]GTPγS binding) (EC50 compound/EC50 PYY(3-36)) values for a group of binders are listed next.
# Target or test system: human Y2 receptor (human) (UniProt P49146)
# Sequence (P49146 whole entry): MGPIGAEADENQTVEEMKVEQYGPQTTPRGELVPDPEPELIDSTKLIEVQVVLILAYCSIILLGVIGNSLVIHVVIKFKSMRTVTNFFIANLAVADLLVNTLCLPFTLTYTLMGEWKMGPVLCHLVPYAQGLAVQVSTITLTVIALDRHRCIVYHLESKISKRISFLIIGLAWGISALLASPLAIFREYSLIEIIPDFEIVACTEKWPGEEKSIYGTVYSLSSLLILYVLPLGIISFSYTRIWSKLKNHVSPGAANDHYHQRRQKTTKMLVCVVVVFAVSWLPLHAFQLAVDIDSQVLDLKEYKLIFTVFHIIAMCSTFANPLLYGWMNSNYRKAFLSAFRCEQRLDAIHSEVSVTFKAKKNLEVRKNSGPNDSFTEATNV
# Method description: cell-based or functional assay
Non-standard residues stand in square brackets, D forms with d. *: point of attachment. 4‑guanidinomethylbenzoyl = N=C(N)NCc1ccc(C(=O)*)cc1; βHOAla = beta-homoalanine (β-HOAla), D- or L-form; Arg(Me) = CNC(=N)NCCC[C@H](N)C(=O)O; hArg = N=C(N)NCCCC[C@H](N)C(=O)O; 4Pal = N[C@@H](Cc1ccncc1)C(=O)O; d(pGlu) = O=C1CC[C@H](C(=O)O)N1; Cha = N[C@@H](CC1CCCCC1)C(=O)O; Isonicotinoyl = O=C(c1ccncc1)*; dIva = CC[C@@](C)(N)C(=O)O; Iva = CC[C@](C)(N)C(=O)O; Aib = CC(C)(N)C(=O)O
Readout type: GBA EC50 Ratio ([35S]GTPγS binding) (EC50 compound/EC50 PYY(3-36))

Binder	Observed
{4‑guanidinomethylbenzoyl}-[Iva]H[Cha][Aib]NK[Aib]TRQR[Cha]-NH2 (SMILES CC[C@](C)(NC(=O)c1ccc(CNC(=N)N)cc1)C(=O)N[C@@H](Cc1c[nH]cn1)C(=O)N[C@@H](CC1CCCCC1)C(=O)NC(C)(C)C(=O)N[C@@H](CC(N)=O)C(=O)N[C@@H](CCCCN)C(=O)NC(C)(C)C(=O)N[C@H](C(=O)N[C@@H](CCCNC(=N)N)C(=O)N[C@@H](CCC(N)=O)C(=O)N[C@@H](CCCNC(=N)N)C(=O)N[C@@H](CC1CCCCC1)C(N)=O)[C@@H](C)O) [4-Guanidinomethylbenzoyl-[Iva25, Cha27,36, Aib28,31, Lys30]-PYY(25-36)]	2.8
Ac-S[dP][Arg(Me)]H[Cha][Aib]NK[Aib]TRQR[Cha]-NH2 (SMILES CNC(=N)NCCC[C@H](NC(=O)[C@H]1CCCN1C(=O)[C@H](CO)NC(C)=O)C(=O)N[C@@H](Cc1c[nH]cn1)C(=O)N[C@@H](CC1CCCCC1)C(=O)NC(C)(C)C(=O)N[C@@H](CC(N)=O)C(=O)N[C@@H](CCCCN)C(=O)NC(C)(C)C(=O)N[C@H](C(=O)N[C@@H](CCCNC(=N)N)C(=O)N[C@@H](CCC(N)=O)C(=O)N[C@@H](CCCNC(=N)N)C(=O)N[C@@H](CC1CCCCC1)C(N)=O)[C@@H](C)O) [Ac-[D-Pro24, Arg(Me)25, Cha27,36, Aib28,31, Lys30]-PYY(23-36)]	1.8
Ac-S[βHOAla]R[4Pal][Cha][Aib]NK[Aib]TRQR[Cha]-NH2 (also: later peak isomer, β-HOAla configuration D or L not assigned) [Ac-[β-HOAla24, Pya(4)26, Cha27,36, Aib28,31, Lys30]-PYY(23-36) later peak]	1.9
Ac-S[dP][Iva][4Pal][Cha][Iva]NK[Aib]TRQR[Cha]-NH2 (SMILES CC[C@](C)(NC(=O)[C@H](CC1CCCCC1)NC(=O)[C@H](Cc1ccncc1)NC(=O)[C@](C)(CC)NC(=O)[C@H]1CCCN1C(=O)[C@H](CO)NC(C)=O)C(=O)N[C@@H](CC(N)=O)C(=O)N[C@@H](CCCCN)C(=O)NC(C)(C)C(=O)N[C@H](C(=O)N[C@@H](CCCNC(=N)N)C(=O)N[C@@H](CCC(N)=O)C(=O)N[C@@H](CCCNC(=N)N)C(=O)N[C@@H](CC1CCCCC1)C(N)=O)[C@@H](C)O) [Ac-[D-Pro24, Iva25,28, Pya(4)26, Cha27,36, Lys30, Aib31]-PYY(23-36)]	1
Ac-S[dP][Iva][4Pal][Cha][Aib]N[hArg][Aib]TRQR[Cha]-NH2 (SMILES CC[C@](C)(NC(=O)[C@H]1CCCN1C(=O)[C@H](CO)NC(C)=O)C(=O)N[C@@H](Cc1ccncc1)C(=O)N[C@@H](CC1CCCCC1)C(=O)NC(C)(C)C(=O)N[C@@H](CC(N)=O)C(=O)N[C@@H](CCCCNC(=N)N)C(=O)NC(C)(C)C(=O)N[C@H](C(=O)N[C@@H](CCCNC(=N)N)C(=O)N[C@@H](CCC(N)=O)C(=O)N[C@@H](CCCNC(=N)N)C(=O)N[C@@H](CC1CCCCC1)C(N)=O)[C@@H](C)O) [Ac-[D-Pro24, Iva25, Pya(4)26, Cha27,36, Aib28,31, Har30]-PYY(23-36)]	1
Isonicotinoyl-S[dP][Iva][4Pal][Cha][Aib]NK[Aib]TRQR[Cha]-NH2 (SMILES CC[C@](C)(NC(=O)[C@H]1CCCN1C(=O)[C@H](CO)NC(=O)c1ccncc1)C(=O)N[C@@H](Cc1ccncc1)C(=O)N[C@@H](CC1CCCCC1)C(=O)NC(C)(C)C(=O)N[C@@H](CC(N)=O)C(=O)N[C@@H](CCCCN)C(=O)NC(C)(C)C(=O)N[C@H](C(=O)N[C@@H](CCCNC(=N)N)C(=O)N[C@@H](CCC(N)=O)C(=O)N[C@@H](CCCNC(=N)N)C(=O)N[C@@H](CC1CCCCC1)C(N)=O)[C@@H](C)O) [4-Pyridinecarbonyl-[D-Pro24, Iva25, Pya(4)26, Cha27,36, Aib28,31, Lys30]-PYY(23-36)]	1.1
[d(pGlu)]R[4Pal][Cha][Aib]NK[Aib]TRQR[Cha]-NH2 (SMILES C[C@@H](O)[C@H](NC(=O)C(C)(C)NC(=O)[C@H](CCCCN)NC(=O)[C@H](CC(N)=O)NC(=O)C(C)(C)NC(=O)[C@H](CC1CCCCC1)NC(=O)[C@H](Cc1ccncc1)NC(=O)[C@H](CCCNC(=N)N)NC(=O)[C@H]1CCC(=O)N1)C(=O)N[C@@H](CCCNC(=N)N)C(=O)N[C@@H](CCC(N)=O)C(=O)N[C@@H](CCCNC(=N)N)C(=O)N[C@@H](CC1CCCCC1)C(N)=O) [[D-pGlu24, Pya(4)26, Cha27,36, Aib28,31, Lys30]-PYY(24-36)]	1.1
Ac-S[dIva]R[4Pal][Cha][Aib]NK[Aib]TRQR[Cha]-NH2 (SMILES CC[C@@](C)(NC(=O)[C@H](CO)NC(C)=O)C(=O)N[C@@H](CCCNC(=N)N)C(=O)N[C@@H](Cc1ccncc1)C(=O)N[C@@H](CC1CCCCC1)C(=O)NC(C)(C)C(=O)N[C@@H](CC(N)=O)C(=O)N[C@@H](CCCCN)C(=O)NC(C)(C)C(=O)N[C@H](C(=O)N[C@@H](CCCNC(=N)N)C(=O)N[C@@H](CCC(N)=O)C(=O)N[C@@H](CCCNC(=N)N)C(=O)N[C@@H](CC1CCCCC1)C(N)=O)[C@@H](C)O) [Ac-[D-Iva24, Pya(4)26, Cha27,36, Aib28,31, Lys30]-PYY(23-36)]	1.3
